Would you kindly list TGI for each of these compounds?
- Test system: NCI-H226 lung
- Protocol Description: NCI tumour cell line growth inhibition, 48 h

For the record COc1ccc(C2=C(Cl)c3cc(OC)c(OC)cc3C2=O)cc1OC , what value of TGI is listed for NCI-H226 lung?
> 100 µM

For the record COC(=O)C1=C(OC(=O)/C(=C/c2ccc(Cl)cc2Cl)c2ccc(Cl)cc2Cl)C(C(=O)OC)[C@@]2(O)[C@@H](C(=O)OC)[C@H](C)C[C@@H]1[C@@H]2C(=O)OC (some centres undefined) , what value of TGI is listed for NCI-H226 lung?
> 100 µM

For the record O=C1c2cccc3cc([N+](=O)[O-])cc(c23)C(=O)N1NC1=NCCN1 , what value of TGI is listed for NCI-H226 lung?
> 100 µM

For the record Clc1ccccc1C(n1ncc2ccccc21)n1ncc2ccccc21 , what value of TGI is listed for NCI-H226 lung?
> 100 µM

For the record CCCCN(CCCC)c1ccc(C(=N)c2ccc(N(C)C)cc2)cc1 , what value of TGI is listed for NCI-H226 lung?
2.63 µM

For the record CC1(C)OC(=O)[C@@](C)([C@H](O)c2ccccc2)O1 , what value of TGI is listed for NCI-H226 lung?
> 100 µM

For the record CCNC(C)(C)C(SS)c1ccc(Br)cc1 (centres undefined) , what value of TGI is listed for NCI-H226 lung?
> 100 µM

For the record N#CC(C#N)=Cc1c(-c2ccccc2)[nH]c2ccccc12 , what value of TGI is listed for NCI-H226 lung?
> 41.4 µM

For the record O=C(CCCn1c(=O)c2sc3ccccc3c2n2nnc(-c3ccccc3)c12)NCCc1cnc[nH]1 , what value of TGI is listed for NCI-H226 lung?
37.7 µM

For the record Cn1cc(C2=C(c3c4n(c5ccccc35)CCCC4)C(=O)NC2=O)c2ccccc21 , what value of TGI is listed for NCI-H226 lung?
> 25 µM

For the record CCN(CC)c1ccc2c(c1)OC(=O)C(c1nnc(-c3ccc([N+](=O)[O-])cc3)o1)C2 (centres undefined) , what value of TGI is listed for NCI-H226 lung?
> 100 µM

For the record Cc1cc(Cc2cc(C)c(O)c(C)c2)cc(C)c1O , what value of TGI is listed for NCI-H226 lung?
77.1 µM

For the record CCCCCCCC(=O)OC[C@@H](C[As](=O)(O)O)OC(=O)CCCCCCC , what value of TGI is listed for NCI-H226 lung?
18.6 µM

For the record Nc1nc(Cl)c(N)c(NCC2(CO)CC(Cc3ccccc3)C2)n1 (centres undefined) , what value of TGI is listed for NCI-H226 lung?
> 100 µM

For the record O=C1CSC(/C(=C/c2ccccc2)c2nc3ccccc3[nH]2)=N1 , what value of TGI is listed for NCI-H226 lung?
38.4 µM

For the record O=C(O)c1nc2cc(C(F)(F)F)ccc2nc1Nc1ccc(Cl)c(Cl)c1 , what value of TGI is listed for NCI-H226 lung?
34 µM

For the record CC(C)N(C(=O)C12C3C4C5C3C1(C(=O)N(C(C)C)C(C)C)C5(C#N)C42)C(C)C (centres undefined) , what value of TGI is listed for NCI-H226 lung?
> 100 µM

For the record COC(=O)/C=C/c1cnc2c(c1)oc(=O)n2CCc1ccccn1 , what value of TGI is listed for NCI-H226 lung?
> 100 µM

For the record CNC(=S)N/N=C1\CC(c2ccccc2)Oc2ccccc21 (centres undefined) , what value of TGI is listed for NCI-H226 lung?
> 100 µM

For the record O=C(c1ccccc1)C(c1ccccc1)C1(O)C(=O)Nc2ccccc21 (centres undefined) , what value of TGI is listed for NCI-H226 lung?
> 100 µM

For the record Cc1cc(C)nc(NS(=O)(=O)c2ccc(NN=c3c4ccccc4n(C)c4ccccc34)cc2)n1 , what value of TGI is listed for NCI-H226 lung?
> 100 µM

For the record Oc1[nH]c2ccccc2c1N=NC(=S)N1CCCCC1 , what value of TGI is listed for NCI-H226 lung?
5.02 µM

For the record COc1ccc(CN2C(=O)C(Cc3cc(OC)c(OC)c(C)c3OC)NC(=O)/C2=C/c2cc(OC)c(OC)c(C)c2OC)cc1 (centres undefined) , what value of TGI is listed for NCI-H226 lung?
60.2 µM

For the record COc1cc(-c2n/c(=C\c3c(O)[nH]c4ccc(Cl)cc34)cc3c2=Nc2ccccc2-3)cc(OC)c1OC , what value of TGI is listed for NCI-H226 lung?
12 µM

For the record C#CCn1c(=O)ccn(/C(=C\C(=O)OCC)C(=O)OCC)c1=O , what value of TGI is listed for NCI-H226 lung?
40.4 µM

For the record C=C(C)[C@@H]1CC[C@]2(C)CC[C@]3(C)[C@H](CC[C@@H]4[C@@]5(C)CC[C@H](OC(=O)c6ccccc6)C(C)(C)[C@@H]5CC[C@]43C)[C@@H]12 , what value of TGI is listed for NCI-H226 lung?
> 100 µM

For the record N#CC(c1ccc(Cl)cc1)c1c(O)nc2ccc(=N)cc-2n1O (centres undefined) , what value of TGI is listed for NCI-H226 lung?
> 100 µM

For the record CCOC(=O)c1cc(/C=C/C(C)=C/C(=O)OC)oc1-c1ccccc1 , what value of TGI is listed for NCI-H226 lung?
> 100 µM

For the record C=CCN1C(=O)CC1N(CC=C)S(=O)(=O)c1ccc(C)cc1 (centres undefined) , what value of TGI is listed for NCI-H226 lung?
> 100 µM

* * *

- System: SK-MEL-5 melanoma
- Protocol Description: NCI tumour cell line growth inhibition, 48 h
Measured Metric: TGI

For the record CC1(C)CC(=O)/C(=C/C2CCNC2=S)C(=O)N1 (stereo not given) , what value of TGI is listed for SK-MEL-5 melanoma?
> 100 µM

For the record O=C(c1ccccc1)C(c1ccccc1)C1(O)C(=O)Nc2ccccc21 (stereo not given) , what value of TGI is listed for SK-MEL-5 melanoma?
> 100 µM

For the record COC(=O)c1ccc(Oc2nc3ccccc3nc2-c2cccs2)cc1 , what value of TGI is listed for SK-MEL-5 melanoma?
> 100 µM

For the record FC(F)(F)c1nc2ccc(SSc3ccc4nc(C(F)(F)F)[nH]c4c3)cc2[nH]1 , what value of TGI is listed for SK-MEL-5 melanoma?
> 100 µM

For the record CO[C@H]1[C@@H](O)[C@@H](C)O[C@@H](O[C@H]2CC[C@@]3(C)[C@H](CC[C@@H]4[C@@H]3CC[C@]3(C)[C@@H](C5=CC(=O)OC5)CC[C@]43O)C2)[C@@H]1O , what value of TGI is listed for SK-MEL-5 melanoma?
0.0342 µM

For the record COC1(C(C)(C)C)C=C(C(C)(C)C)P(=O)(O)O1 (stereo not given) , what value of TGI is listed for SK-MEL-5 melanoma?
> 100 µM

For the record O=[N+]([O-])c1cc([N+](=O)[O-])c(Cl)c(Cl)c1Cl , what value of TGI is listed for SK-MEL-5 melanoma?
3.35 µM

For the record COc1ccc(OC)c([N+](=O)[O-])c1-c1nc2sccn2c1/C=N/N=C(N)N , what value of TGI is listed for SK-MEL-5 melanoma?
> 100 µM

For the record COc1cc2c(c(OC)c1OC)C(=O)CC(c1cccc(NC(=O)c3ccc(Br)cc3)c1)O2 (stereo not given) , what value of TGI is listed for SK-MEL-5 melanoma?
3.32 µM

For the record O=C1NCN(c2ccccc2)C12CCN(CCc1ccc3[nH]c(=S)[nH]c3c1)CC2 , what value of TGI is listed for SK-MEL-5 melanoma?
31.7 µM

For the record COc1cc(C2S/C(=C/c3ccccc3)C(=O)N2c2cc(Cl)ccc2Cl)cc(OC)c1OC (stereo not given) , what value of TGI is listed for SK-MEL-5 melanoma?
> 100 µM

For the record Nc1nc(Cl)c(N)c(NCC2(CO)CC(Cc3ccccc3)C2)n1 (stereo not given) , what value of TGI is listed for SK-MEL-5 melanoma?
18.5 µM

For the record O=c1oc2cc(N=Cc3ccccc3Cl)ccc2c2ccccc12 , what value of TGI is listed for SK-MEL-5 melanoma?
> 100 µM

For the record O=C(Cc1nc2ccccc2c(=O)n1-c1c(Cl)cccc1Cl)c1ccncc1 , what value of TGI is listed for SK-MEL-5 melanoma?
29.4 µM

For the record CCCCCCCC(=O)OC[n+]1ccc(-c2c(COC(=O)NC(C)C)c(COC(=O)NC(C)C)c3n2CCC3)cc1 , what value of TGI is listed for SK-MEL-5 melanoma?
> 100 µM

For the record O=C(N/C(=C\c1ccccc1[N+](=O)[O-])c1nc2ccccc2[nH]1)c1ccccc1 , what value of TGI is listed for SK-MEL-5 melanoma?
> 100 µM

For the record O=C(C/C(=N\NC(=O)C[n+]1ccccc1)C(=O)Nc1nc2ccc([N+](=O)[O-])cc2s1)CC(c1ccccc1)c1c(O)c2ccccc2oc1=O (stereo not given) , what value of TGI is listed for SK-MEL-5 melanoma?
> 100 µM

For the record C=CCN1C(=O)CC1N(CC=C)S(=O)(=O)c1ccc(C)cc1 (stereo not given) , what value of TGI is listed for SK-MEL-5 melanoma?
> 100 µM

For the record COc1ccc(C(C#N)NC23CC4CC(CC(C4)C2)C3)cc1OC (stereo not given) , what value of TGI is listed for SK-MEL-5 melanoma?
> 100 µM

For the record CCOC(=O)c1cc(/C=C/C(C)=C/C(=O)OC)oc1-c1ccccc1 , what value of TGI is listed for SK-MEL-5 melanoma?
> 100 µM
